Catalogue of molecules with associated IC50
tested on: MDA-MB-231 complex spheroid viability; assay: Anticancer human tumor MDA-MB-231/ATCC cell line growth inhibition; settings: curve of compound;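 note: drug exposure lasted 7 days starting on day 3 of spheroid growth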

# count of solved cases: 3
CCc1c2c(nc3ccc(O)cc13)-c1cc3c(c(=O)n1C2)COC(=O)[C@]3(O)CC; < 0.000949 µM
Nc1ncn(C2CC(O)C(CO)O2)c(=O)n1 (stereo not given); > 1 µM
Nc1ccn(C2OC(CO)C(O)C2(F)F)c(=O)n1 (stereo not given); < 0.000949 µM

Prompt line: Please give the documented IC50 of Cn1ncnc1C1c2n[nH]c(=O)c3cc(F)cc(c23)NC1c1ccc(F)cc1 (stereo not given)
Response line: > 0.1 µM

Prompt line: Please give the documented IC50 of `CC(C)c1c(-c2ccccc2)nc2c(C#N)c[nH]n2c1=O`
Response line: > 10 µM

###

tested on: MDA-MB-231 complex spheroid viability; test: Anticancer human tumor MDA-MB-231/ATCC cell line growth inhibition; details: second compound 3.16 µM; first compound 0.0949 µM; stronger effect = lower value;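 note: drug exposure lasted 7 days starting on day 3 of spheroid growth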
quantity: viability, T/C (%)
Please give a number only; it is taken to be in %.

Nc1ccn(C2OC(CO)C(O)C2(F)F)c(=O)n1 (stereo unspecified) + NC1CC1c1ccc(-c2cccc(O)c2)cc1; 15.8
CCN(c1cc(-c2ccc(CN3CCOCC3)cc2)cc(C(=O)NCc2c(C)cc(C)[nH]c2=O)c1C)C1CCOCC1 + NC1CC1c1ccc(-c2cccc(O)c2)cc1; 44.7
Nc1ncn(C2CC(O)C(CO)S2)c(=O)n1 (stereo unspecified) + NC1CC1c1ccc(-c2cccc(O)c2)cc1; 16.1
Nc1ccccc1NC(=O)c1ccc(CNC(=O)OCc2cccnc2)cc1 + NC1CC1c1ccc(-c2cccc(O)c2)cc1; 21.3
Nc1ncn(C2CC(O)C(CO)S2)c(=O)n1 (stereo unspecified) + NC1CCC(NC2CC2c2ccccc2)CC1; 17.9
COc1cc(C2c3cc4c(cc3C(OC3OC5COC(C)OC5C(O)C3O)C3COC(=O)C23)OCO4)cc(OC)c1O (stereo unspecified) + NC1CC1c1ccc(-c2cccc(O)c2)cc1; 23.5
CCN(c1cc(-c2ccc(CN3CCOCC3)cc2)cc(C(=O)NCc2c(C)cc(C)[nH]c2=O)c1C)C1CCOCC1 + NC1CCC(NC2CC2c2ccccc2)CC1; 65.4
CCc1c2c(nc3ccc(O)cc13)-c1cc3c(c(=O)n1C2)COC(=O)[C@]3(O)CC + NC1CC1c1ccc(-c2cccc(O)c2)cc1; 0.85
Nc1ccn(C2OC(CO)C(O)C2(F)F)c(=O)n1 (stereo unspecified) + NC1CCC(NC2CC2c2ccccc2)CC1; 9.01
NS(=O)(=O)OCC1CC(n2ccc3c(NC4CCc5ccccc54)ncnc32)CC1O (stereo unspecified) + NC1CCC(NC2CC2c2ccccc2)CC1; 59.7

# input for lookup
Prompt line: Please give the documented viability, T/C of COc1cc(C2c3cc4c(cc3C(OC3OC5COC(C)OC5C(O)C3O)C3COC(=O)C23)OCO4)cc(OC)c1O (stereo unspecified) + NC1CCC(NC2CC2c2ccccc2)CC1
Response line: 50.1

###

test system: MDA-MB-231 complex spheroid viability; assay: Anticancer human tumor MDA-MB-231/ATCC cell line growth inhibition; conditions: second compound 1 µM; first compound 0.000316 µM; stronger effect = lower value;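 note: drug exposure lasted 7 days starting on day 3 of spheroid growth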
Catalogue of compounds with associated viability, T/C

# count of solved cases: 2
CC(C)CC(NC(=O)CNC(=O)c1cc(Cl)ccc1Cl)B1OC(=O)CC(CC(=O)O)(C(=O)O)O1 (stereo not drawn) + NC1CCC(NC2CC2c2ccccc2)CC1; 102%
CC(C)CC(NC(=O)C(Cc1ccccc1)NC(=O)c1cnccn1)B(O)O (stereo not drawn) + NC1CC1c1ccc(-c2cccc(O)c2)cc1; 28.9%

# input for lookup
Prompt line: Please give the documented viability, T/C of CC(C)CC(NC(=O)CNC(=O)c1cc(Cl)ccc1Cl)B1OC(=O)CC(CC(=O)O)(C(=O)O)O1 (stereo not drawn) + NC1CC1c1ccc(-c2cccc(O)c2)cc1
Response line: 61.7%
